Biological target: T1, human SPNS2 (human, UniProt Q8IVW8 1-549)
T1 sequence: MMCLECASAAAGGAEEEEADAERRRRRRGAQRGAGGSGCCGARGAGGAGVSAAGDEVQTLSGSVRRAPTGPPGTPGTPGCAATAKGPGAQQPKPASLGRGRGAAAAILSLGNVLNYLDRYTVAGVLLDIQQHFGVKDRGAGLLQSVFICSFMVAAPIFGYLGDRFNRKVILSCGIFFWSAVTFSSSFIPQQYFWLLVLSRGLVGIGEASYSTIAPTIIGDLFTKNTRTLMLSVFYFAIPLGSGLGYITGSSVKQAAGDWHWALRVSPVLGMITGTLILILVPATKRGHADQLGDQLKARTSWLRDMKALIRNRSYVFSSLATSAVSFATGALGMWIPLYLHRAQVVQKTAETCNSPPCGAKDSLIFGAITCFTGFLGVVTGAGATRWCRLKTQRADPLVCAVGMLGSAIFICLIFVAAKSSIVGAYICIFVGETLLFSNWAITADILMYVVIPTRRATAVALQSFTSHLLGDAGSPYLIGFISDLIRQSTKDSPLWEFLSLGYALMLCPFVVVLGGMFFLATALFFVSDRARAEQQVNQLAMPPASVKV
Assay: cell-based or functional assay
The binders listed here are annotated with their pIC50, S1P transport inhibition (S1PR3 Ca2+ FLIPR bioassay).

[[record]]
binder = "53-0707E (antibody, IgG2b, V domains shown) VH: EVQLQQSGAELVRPRTSVKLSCKVSGDSITRYYVHFVKQRPGQGLEWIGRIDPEDDTTKYSEKFKKKATLTADASSNTAYLIFSGLTSEDTATYFCSTLTGLDYWGQGVMVTVSS VL: DIQMTQSPPVLSTSVGDRVTLRCKASQNVHSKLDWYQQKHGEAPKLLIYYTHNLQTGIPSRFSGSGSGTDYTLTISSLQPEDVATYYCFQYYSGWTFGGGTKLEMKR"
result = "7.1 pIC50 (M)"


Next item in the queue.
// recorded pIC50, S1P transport inhibition (S1PR3 Ca2+ FLIPR bioassay) for 49-0703G (antibody, IgG2b, V domains shown) VH: EVQLVESGGGLVQPGRSMKLSCAASGFTFSNHYMAWVRQAPTKGLEWVASISTGGGNTYYRDSVKGRFTISRDNAKSTLYLQMDSLRSEDTATYYCARQDYSNYMGGFAYWGQGTLVTVSS VL: QFVLTQPNSVSTNLGSTVKLSCKRSTGNIGNNYVNWYQQYEGRSPTTMIYRDDERPDGVPDRFSGSIDRSSNSALLTINNVQTEDEADYFCQSFSNGMFIFAGGTQLTVL : 7 pIC50 (M)

Reference for the values: patent US20210147523A1
